- target: Phospholipase A2 (Homo sapiens, UniProt P04054);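 further: confirmatory dose-response counterscreen on phospholipase A2, testing hits that came from an ultra-high-throughput screen for ATG4B inhibitors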
- Sequence (P04054 whole entry): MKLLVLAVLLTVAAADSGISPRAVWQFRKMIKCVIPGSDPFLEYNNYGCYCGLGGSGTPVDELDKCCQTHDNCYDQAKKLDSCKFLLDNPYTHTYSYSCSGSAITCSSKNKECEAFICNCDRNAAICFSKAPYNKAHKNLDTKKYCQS
- Assay type: functional
The source made the active and inactive calls.
reported-property: IC50

Prompt line: Check the records and state IC50 for `NC(=O)c1sc2nc3c(c(-c4ccccc4)c2c1N)CCC3`
Response line: 8.38 µM (active)

Prompt line: Answer with reported IC50 of `CN(C)c1cccc(C(=O)n2cc(C(=O)c3cc(F)ccc3O)cn2)c1`
Response line: 9.78 µM (active)

Prompt line: Using the record for `CC(C)(C)c1nc(SCC(=O)c2ccccc2)c2ccccc2n1` , state its measured IC50.
Response line: 10.1 µM (active)

Prompt line: Determine its reported IC50: `N=C(N)c1ccc(/N=N/c2c(O)ccc3c2[nH]c2ccccc23)cc1`
Response line: 9.6 µM (active)

----------
- Test system: Streptococcus
- procedure-summary: GAS UMAA2166 growth inhibition – luminescence, BacTiterGlo, counter-screen for streptokinase expression inhibitor project, dose response (AID 1915);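 further: potency for reduction of bacterial viability or growth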
- Assay type: functional, organism-based
Activity calls are given as the source filed them.
reported-property: EC50

Prompt line: # return EC50 for `Cc1cc(-c2csc3ncnc(S)c23)cc(C)c1C` , test system: Streptococcus
Response line: 4.06 µM (active)

Prompt line: Give reported EC50 for `O=C(Nc1cccc(-c2csc(Nc3cccc(C(F)(F)F)c3)n2)c1)c1ccccc1` (Streptococcus)
Response line: 6.3 µM (active)

Prompt line: Report value only: EC50, Streptococcus, `O=C(Nc1ccccc1Sc1ccccc1)c1ccccc1F`
Response line: > 150 µM (not active)

Prompt line: Report EC50 from Streptococcus testing of CC(Oc1ccc(Cl)cc1Cl)C(=O)Nc1ccc(S(=O)(=O)Nc2cnc3ccccc3n2)cc1 (stereo unspecified)
Response line: 7.38 µM (active)

Prompt line: Fill in EC50 for `COc1cccc(NCc2cc(=O)oc3cc(C)c(O)cc23)c1` tested with Streptococcus.
Response line: 2.79 µM (active)

Prompt line: Write EC50 of CCCC(N=C(S)NCC1CCCO1)C12CC3CC(CC(C3)C1)C2 (stereo unspecified) ; system used: Streptococcus
Response line: > 150 µM (not active)

----------
Would you kindly list EC50 for each of these molecules?
- target: Luciferin 4-monooxygenase (Photinus pyralis)
- Sequence (P08659 whole entry): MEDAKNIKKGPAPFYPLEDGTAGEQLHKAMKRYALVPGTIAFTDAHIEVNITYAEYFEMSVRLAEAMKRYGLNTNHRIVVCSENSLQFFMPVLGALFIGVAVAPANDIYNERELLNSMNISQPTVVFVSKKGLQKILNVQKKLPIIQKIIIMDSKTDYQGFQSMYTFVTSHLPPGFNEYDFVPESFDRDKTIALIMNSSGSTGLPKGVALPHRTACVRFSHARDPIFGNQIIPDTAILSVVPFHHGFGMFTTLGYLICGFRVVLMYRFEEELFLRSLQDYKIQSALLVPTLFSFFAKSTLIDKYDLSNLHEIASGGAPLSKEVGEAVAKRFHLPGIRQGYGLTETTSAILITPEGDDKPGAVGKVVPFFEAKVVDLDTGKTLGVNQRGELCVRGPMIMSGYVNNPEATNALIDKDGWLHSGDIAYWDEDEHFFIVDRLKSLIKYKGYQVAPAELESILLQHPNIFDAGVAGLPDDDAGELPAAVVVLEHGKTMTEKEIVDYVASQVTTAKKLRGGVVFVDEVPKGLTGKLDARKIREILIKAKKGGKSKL
- procedure-summary: inhibition of purified Photinus pyralis luciferase – biochemical, luminescence, dose response (AID 1891)
The source made the active and inactive calls.

Prompt line: Annotate the molecule `CCOC(=O)c1nn(-c2ccc3c(c2)CCN3C(C)=O)cc1O` with its measured EC50.
Response line: > 112 µM (not active)

Prompt line: Provide only the value of recorded EC50 for `COC(=O)c1sccc1NC(=O)Nc1cccc(OC)c1`
Response line: 1.31 µM (active)

Prompt line: Return value of EC50 for input `COc1ccc2oc(=O)c(C(=O)N3CCCC3)cc2c1` , no commentary.
Response line: > 112 µM (not active)

Prompt line: Write down EC50 measured for item COc1ccc(C(=O)N2CCCC(c3nc(-c4ccc(OC)c(OC)c4)no3)C2)c(OC)c1 (stereo unspecified)
Response line: > 112 µM (not active)

Prompt line: Recall and state the measured EC50 for `O=C(/C=C\Nc1ccc2c(c1)OCO2)c1ccccn1` .
Response line: 0.634 µM (active)

Prompt line: Supply EC50 value. Item: `O=C(NCc1cccs1)c1csc2ccccc12`
Response line: > 112 µM (not active)

Prompt line: Give recorded EC50. `COCCN1CN=C(Nc2nc3ccccc3o2)NC1`
Response line: > 112 µM (not active)

Prompt line: Indicate its recorded EC50; the molecule in question is `COc1ccc(/N=C/C2=C(O)c3ccccc3C2=O)cc1`
Response line: 0.576 µM (active)

Prompt line: Dear colleague, please send me the reported EC50 for `COC(=O)c1ccc(CSc2nnc(N)s2)cc1` when you can.
Response line: > 112 µM (not active)

Prompt line: Please list EC50 recorded for the molecule `Cn1c(N=Nc2ccccc2)nc2ccccc21`
Response line: 1.5 µM (active)

Prompt line: Give the reported value of EC50 for this record: `COc1ccc(OCC(=O)Nc2nc3ccccc3[nH]2)cc1`
Response line: > 112 µM (not active)

Prompt line: Give the reported value of EC50 for this record: O=C(NC1CCCC1)C(c1ccco1)N(Cc1ccccc1)C(=O)c1csnn1 (stereo unspecified)
Response line: > 112 µM (not active)

Prompt line: Answer with reported EC50 of COC(=O)C(C)Sc1nc2c(c(=O)[nH]c(=O)n2C)n1CCCc1ccccc1 (stereo unspecified)
Response line: > 112 µM (not active)

Prompt line: Could you please provide reported EC50 for `CC/C(C)=N\N=C\c1c(O)n(CC)c2cc(C3=NNC(=O)CC3)ccc12` ? Thanks!
Response line: > 112 µM (not active)

Prompt line: Give a short answer stating reported EC50 for `Cc1cc(O)nc(N=N/C(=N/Nc2ccc(O)cc2)c2ccccc2)n1` .
Response line: 0.763 µM (active)

Prompt line: For the molecule `C=CCn1c(C)cc(C2=NN=C(NCC)SC2)c1C` , give its measured EC50 value.
Response line: 5.03 µM (active)

----------
Could you please report measured EC50 for the items listed next?
- procedure-summary: Trypanosoma cruzi growth suppression in host cells – NIH3T3 host cells, beta-gal luminescence, confirmation (AID 2044);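 further: intracellular parasites grown in NIH/3T3 mouse fibroblasts as host cells; luminescent beta-galactosidase reporter signal from transgenic T. cruzi replicating inside host cells; inhibitors lower the luminescence signal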
- Type: functional, cell-based
The source made the active and inactive calls.

Prompt line: Report EC50, nothing else, for this compound: `CC(=O)Nc1ccc(Nc2c3ccccc3nc3ccccc23)cc1`
Response line: 556 nM (active)

Prompt line: For the compound CC(C)Oc1ccc(CNCCC2(C(C)C)CCOC(C)(C)C2)cc1 (stereo not given) , report EC50.
Response line: < 100 nM (active)

Prompt line: # return recorded EC50 for input COc1cccc(CNC(=O)CCC2CCCN(Cc3cc4ccccc4o3)C2)c1 (stereo not given)
Response line: 103 nM (active)

Prompt line: Please look at this compound and report its EC50: `Cc1c(C(=O)N2CCC(Cc3ccccc3)CC2)sc2ncnc(N3CCC(C)CC3)c12`
Response line: 1680 nM (active)

Prompt line: Please list EC50 recorded for the compound `COc1ccc(CNC(=O)CN(Cc2ccccc2)S(=O)(=O)c2ccc(Cl)cc2)cc1`
Response line: 3150 nM (active)

----------
- target: SWI/SNF-related matrix-associated actin-dependent regulator of chromatin subfamily A member 2 (Homo sapiens)
- Sequence (P51531 whole entry): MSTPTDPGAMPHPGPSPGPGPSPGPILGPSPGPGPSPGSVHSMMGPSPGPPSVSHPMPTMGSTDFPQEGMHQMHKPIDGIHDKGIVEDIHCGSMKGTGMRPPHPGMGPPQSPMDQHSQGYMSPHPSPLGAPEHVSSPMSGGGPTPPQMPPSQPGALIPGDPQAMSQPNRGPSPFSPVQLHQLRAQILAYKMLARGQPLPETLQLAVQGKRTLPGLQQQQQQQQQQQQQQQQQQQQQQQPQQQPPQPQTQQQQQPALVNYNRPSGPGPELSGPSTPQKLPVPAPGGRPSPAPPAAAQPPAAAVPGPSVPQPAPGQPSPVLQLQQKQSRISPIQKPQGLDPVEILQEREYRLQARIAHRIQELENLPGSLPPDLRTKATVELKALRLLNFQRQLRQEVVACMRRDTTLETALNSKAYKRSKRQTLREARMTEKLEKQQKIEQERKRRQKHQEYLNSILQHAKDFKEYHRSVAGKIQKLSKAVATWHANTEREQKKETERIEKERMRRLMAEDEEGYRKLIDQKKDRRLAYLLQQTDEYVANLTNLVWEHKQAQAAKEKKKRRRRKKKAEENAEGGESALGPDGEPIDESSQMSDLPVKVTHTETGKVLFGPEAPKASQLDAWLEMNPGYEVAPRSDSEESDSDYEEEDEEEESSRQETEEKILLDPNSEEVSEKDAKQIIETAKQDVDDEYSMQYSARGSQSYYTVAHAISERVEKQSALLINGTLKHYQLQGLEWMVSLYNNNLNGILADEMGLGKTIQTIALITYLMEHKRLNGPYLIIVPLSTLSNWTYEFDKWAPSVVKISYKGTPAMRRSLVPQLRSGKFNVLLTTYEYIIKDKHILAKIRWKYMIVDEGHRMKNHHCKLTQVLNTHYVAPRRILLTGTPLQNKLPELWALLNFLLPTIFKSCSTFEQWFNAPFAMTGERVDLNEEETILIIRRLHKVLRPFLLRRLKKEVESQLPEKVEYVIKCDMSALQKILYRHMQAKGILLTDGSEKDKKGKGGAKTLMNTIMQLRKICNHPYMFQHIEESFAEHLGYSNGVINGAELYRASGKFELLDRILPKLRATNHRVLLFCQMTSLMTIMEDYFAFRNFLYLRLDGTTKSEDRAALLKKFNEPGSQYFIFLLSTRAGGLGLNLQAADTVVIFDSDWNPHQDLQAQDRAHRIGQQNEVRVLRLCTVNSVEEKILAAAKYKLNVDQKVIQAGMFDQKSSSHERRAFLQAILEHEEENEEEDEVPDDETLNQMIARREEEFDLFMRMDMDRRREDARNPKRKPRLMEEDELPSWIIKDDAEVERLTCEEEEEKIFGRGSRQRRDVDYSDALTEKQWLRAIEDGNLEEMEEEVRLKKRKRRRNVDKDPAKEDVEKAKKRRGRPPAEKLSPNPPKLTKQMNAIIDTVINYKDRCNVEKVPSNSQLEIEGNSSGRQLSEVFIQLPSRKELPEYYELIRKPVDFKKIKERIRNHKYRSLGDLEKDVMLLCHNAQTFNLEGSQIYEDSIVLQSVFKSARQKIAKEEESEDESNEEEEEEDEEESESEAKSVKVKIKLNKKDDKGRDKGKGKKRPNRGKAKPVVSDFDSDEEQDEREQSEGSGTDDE
- procedure-summary: Luminescence-based cell-based high throughput dose response assay to identify activators of the function of SWI/SNF related, matrix associated, actin dependent regulator of chromatin, subfamily a, member 2 (SMARCA2, BRM).
- Format: functional
The source made the active and inactive calls.
reported-property: EC50

Prompt line: Annotate the molecule `CC(=O)Nc1ccc(Nc2c3ccccc3nc3ccccc23)cc1` with its measured EC50.
Response line: > 91.1 µM (inactive)

Prompt line: In one line, give reported EC50 of the entry `COc1cc(OC)cc(-c2nc3ccccc3s2)c1` .
Response line: > 91.1 µM (inactive)

Prompt line: For the molecule `O=C(Oc1c(CN2CCOCC2)cc(Cl)c2cccnc12)c1ccccc1F` , report EC50.
Response line: > 91.2 µM (inactive)

Prompt line: Item `CC/N=c1\sc(C(=O)OC)cc(=O)n1CC` : provide EC50
Response line: > 91.2 µM (inactive)

----------
- target: Caspase-6 (Homo sapiens, UniProt P55212)
- procedure-summary: inhibition of CASP6 peptide cleavage – biochemical, VEID-R110 fluorescence, cherry-pick, dose response (AID 720632)
Activity calls are given as the source filed them.
reported-property: AC50

Prompt line: Return AC50 (reported value) for this compound: `COc1ccc2nc3cccc(OC)c3nc2c1`
Response line: 23.1 µM (active)

Prompt line: State its AC50 for this compound: `Cc1cc(C)c2nc(-c3ccccn3)cc(C(=O)Nc3ccc(S(=O)(=O)Nc4onc(C)c4C)cc3)c2c1`
Response line: 14.7 µM (active)

Prompt line: Return AC50 (reported value) for this compound: `Cn1c(N=Nc2ccccc2)nc2ccccc21`
Response line: 38.1 µM (active)

Prompt line: Return AC50 (reported value) for this compound: `CCCN(C(=O)c1cccc(-n2cccc2)c1)c1c(N)n(Cc2ccccc2)c(=O)[nH]c1=O`
Response line: 3.75 µM (active)

----------
Would you mind telling me the reported AC50 of each entry?
- Tested on: INS1
- procedure-summary: INS-1E survival protection against cytokine death – cell-based, luminescence, retest, dose response (AID 449756);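 further: cell death triggered by IL-1 beta plus TNF-alpha plus IFN-gamma mixture; protective hits raise ATP signal compared with cytokine alone wells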
- Assay type: functional
- condition-summary: Rattus norvegicus
Calls of active or inactive are those of the source.

Prompt line: Give AC50 for the following molecule: `CCOC(=O)c1cnc(-n2nc(C)cc2C)nc1NC1CCCC1`
Response line: 2.73 µM (active)

Prompt line: Find the measured AC50 of `COC1=C(Nc2ccccc2OC)C(=O)c2ccccc2C1=O` and report it.
Response line: 38.3 µM (active)

Prompt line: State its AC50: `C=CCn1nc([N+](=O)[O-])nc1Sc1cccc2cccnc12`
Response line: 1.24 µM (active)

Prompt line: Output AC50 of `COc1ccc(C)cc1Nc1n[n+](-c2ccccc2)c(-c2ccc(N(C)C)cc2)s1`
Response line: 2.53 µM (active)
